# test-target: Replicase polyprotein 1ab (Severe acute respiratory syndrome coronavirus 2)
# method-description: Inhibition of N7-MTase activity of SARS-CoV-2 N-terminus hexahistidine tag nsp14 expressed in Escherichia coli C2566 at 5 uM using [3H]SAM as substrate incubated for 30 mins in presence of mGpppAC4 synthetic RNA by filter binding assay relative to control
Each record here notes measured inhibition.
# number only, unit % dropped from output

Worked cases, inhibition given:
1) Nc1ncnc2c1ncn2[C@@H]1O[C@H](CNS(=O)(=O)c2cccc([N+](=O)[O-])c2Cl)[C@@H](O)[C@H]1O; 75
2) Cc1ccc(S(=O)(=O)NC[C@H]2O[C@@H](n3cnc4c(N)ncnc43)[C@H](O)[C@@H]2O)cc1Cl; 90
3) CCN(C[C@H]1O[C@@H](n2cnc3c(N)ncnc32)[C@H](O)[C@@H]1O)S(=O)(=O)c1cccc(C#N)c1; 65
4) COc1cc([N+](=O)[O-])ccc1S(=O)(=O)NC[C@H]1O[C@@H](n2cnc3c(N)ncnc32)[C@H](O)[C@@H]1O; 77
5) Nc1ncnc2c1ncn2[C@@H]1O[C@H](CNS(=O)(=O)c2ccc(C(F)(F)F)cc2[N+](=O)[O-])[C@@H](O)[C@H]1O; 60
6) Nc1ncnc2c1ncn2[C@@H]1O[C@H](CNS(=O)(=O)c2ccc([N+](=O)[O-])cc2)[C@@H](O)[C@H]1O; 25

Next compound, please.
Req: Fill in the blank: the reported inhibition of `COc1ccc(S(=O)(=O)NC[C@H]2O[C@@H](n3cnc4c(N)ncnc43)[C@H](O)[C@@H]2O)cc1C#N` is ____.
Resp: 100
